Target: T1, Chryseobacterium sp-62563 deamidase polypeptide (second polypeptide, deamidase domain), wildtype (Chryseobacterium sp-62563)
T1 sequence: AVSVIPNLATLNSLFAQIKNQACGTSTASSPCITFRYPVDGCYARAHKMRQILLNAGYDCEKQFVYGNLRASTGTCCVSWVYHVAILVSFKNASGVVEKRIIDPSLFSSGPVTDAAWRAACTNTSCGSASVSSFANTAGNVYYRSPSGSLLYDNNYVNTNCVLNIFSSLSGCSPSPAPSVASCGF
Assay: cell-based or functional assay
Outcome Measure: Relative activity of maturated deamidase (% initial rate)
Answer using only a numeral; do not append any unit.

Would you kindly share the measured Relative activity of maturated deamidase (% initial rate) for Chryseobacterium sp-62563 propeptide K96T (protein) NQDPNLVAKESNETAMKDFGKTVPVGIEKEDGKFKISFMVTAQPYEIKDSKENAAYISMIKTAVENETPIHVFLKANTNEIAKVDKATDDDIRYFTSVFTKEVKEENRK ?
34

Would you kindly share the measured Relative activity of maturated deamidase (% initial rate) for Chryseobacterium sp-62563 propeptide T88I (protein) NQDPNLVAKESNETAMKDFGKTVPVGIEKEDGKFKISFMVTAQPYEIKDSKENAAYISMIKTAVENETPIHVFLKANTNEIAKVDKAIDDDIRYFKSVFTKEVKEENRK ?
52

Would you kindly share the measured Relative activity of maturated deamidase (% initial rate) for Chryseobacterium sp-62563 propeptide Y45N (protein) NQDPNLVAKESNETAMKDFGKTVPVGIEKEDGKFKISFMVTAQPNEIKDSKENAAYISMIKTAVENETPIHVFLKANTNEIAKVDKATDDDIRYFKSVFTKEVKEENRK ?
73

Would you kindly share the measured Relative activity of maturated deamidase (% initial rate) for Chryseobacterium sp-62563 propeptide E67I (protein) NQDPNLVAKESNETAMKDFGKTVPVGIEKEDGKFKISFMVTAQPYEIKDSKENAAYISMIKTAVENITPIHVFLKANTNEIAKVDKATDDDIRYFKSVFTKEVKEENRK ?
31

Would you kindly share the measured Relative activity of maturated deamidase (% initial rate) for Chryseobacterium sp-62563 propeptide F95L (protein) NQDPNLVAKESNETAMKDFGKTVPVGIEKEDGKFKISFMVTAQPYEIKDSKENAAYISMIKTAVENETPIHVFLKANTNEIAKVDKATDDDIRYLKSVFTKEVKEENRK ?
61

Would you kindly share the measured Relative activity of maturated deamidase (% initial rate) for Chryseobacterium sp-62563 propeptide D18G (protein) NQDPNLVAKESNETAMKGFGKTVPVGIEKEDGKFKISFMVTAQPYEIKDSKENAAYISMIKTAVENETPIHVFLKANTNEIAKVDKATDDDIRYFKSVFTKEVKEENRK ?
62
